Tested on: SR leukemia
Assay: NCI tumour cell line growth inhibition, 48 h
Provide the reported TGI of each item.

// Nc1nccc(-c2c(-c3ccc(F)cc3)ncn2C2CCNCC2)n1 : TGI value = > 25 µM

// COC(=O)C(C(=O)C(=O)Nc1c(C)cccc1C)c1cnc2ccccc2n1 (stereo not drawn) : TGI value = > 100 µM

// CC(=O)Nc1ccc2c(c1)C(c1ccccc1Cl)=Nc1c(n[nH]c1C)N2 : TGI value = > 25 µM

====

Test system: SN12C renal
Assay: NCI tumour cell line growth inhibition, 48 h
Reported property: TGI

// COc1ccc(N=N/C(=N/NC(=O)c2ccc(C)cc2)c2ccc(N(CCC#N)CCC#N)cc2OC)cc1 : TGI value = > 100 µM

// COC(=O)C(NC(=O)C(CC(=O)OC(C)(C)C)NC(=O)OC(C)(C)C)C(O)c1ccccc1 (configuration not stated) : TGI value = > 100 µM

// OCc1cn(C(c2ccccc2)(c2ccccc2)c2ccccc2)cn1 : TGI value = > 100 µM

// COC(=O)CCC(NC(=S)N/N=C(\C)c1cnc2ccccc2n1)C(=O)OC (configuration not stated) : TGI value = > 100 µM

// O=S(=O)(NCCCNc1nccc(-c2c(-c3ccc(O)cc3)nc3sccn23)n1)c1ccc(F)cc1 : TGI value = > 100 µM

// CCN(CC)c1cccc2c1/C(=N/O)CCCC2 : TGI value = > 100 µM

// Cc1cc2c(c(C=Nc3ccccc3O)c1)OC1(C=C2)Oc2ccccc2C(=O)N1C (configuration not stated) : TGI value = 46.5 µM

// O=C1C2Nc3ccccc3SC2C(=O)N1c1ccc(Br)cc1 (configuration not stated) : TGI value = > 100 µM

// CC(=O)O[C@H]1C(=O)[C@@]2(C)[C@H]([C@H](OC(=O)c3cccc([N+](=O)[O-])c3)[C@]3(O)C[C@H](OC(=O)[C@H](O)[C@@H](NC(=O)c4ccccc4)c4ccccc4)C(C)=C1C3(C)C)[C@]1(OC(C)=O)CO[C@@H]1C[C@@H]2O : TGI value = > 25 µM

// CC(=O)OCC1OC(n2cc(F)c(=O)[nH]c2=O)C(NC(=O)N(CCCl)N=O)C(OC(C)=O)C1OC(C)=O (configuration not stated) : TGI value = > 100 µM

// CC(=O)C1=C(C)N2C(=NC3=C(CCc4ccccc43)C2c2ccc(F)cc2)S1 (configuration not stated) : TGI value = > 100 µM

// N#CC(C(=O)c1cccnc1Cl)c1nc2cc(C(F)(F)F)ccc2s1 (configuration not stated) : TGI value = > 100 µM
